Provenance of the data: paper PMC2774495

biological target: UniProtKB P11509
property-name: Ki (µM)
Answer with a number only, understood to be in µM.

IN: Quick check: Ki of N#Cc1ccc(C(c2ccc(C#N)cc2)n2cncn2)cc1 [letrozole] ?
OUT: 5

---

biological target: CYP2C19 (Homo sapiens); details: read-out: Ki values, CYP2C19, HLMs; HLMs (SD-101) 0.5 mg/ml, S-mephenytoin 10–75 μM, mean ± SE, competitive model
Sequence (P33261 whole entry): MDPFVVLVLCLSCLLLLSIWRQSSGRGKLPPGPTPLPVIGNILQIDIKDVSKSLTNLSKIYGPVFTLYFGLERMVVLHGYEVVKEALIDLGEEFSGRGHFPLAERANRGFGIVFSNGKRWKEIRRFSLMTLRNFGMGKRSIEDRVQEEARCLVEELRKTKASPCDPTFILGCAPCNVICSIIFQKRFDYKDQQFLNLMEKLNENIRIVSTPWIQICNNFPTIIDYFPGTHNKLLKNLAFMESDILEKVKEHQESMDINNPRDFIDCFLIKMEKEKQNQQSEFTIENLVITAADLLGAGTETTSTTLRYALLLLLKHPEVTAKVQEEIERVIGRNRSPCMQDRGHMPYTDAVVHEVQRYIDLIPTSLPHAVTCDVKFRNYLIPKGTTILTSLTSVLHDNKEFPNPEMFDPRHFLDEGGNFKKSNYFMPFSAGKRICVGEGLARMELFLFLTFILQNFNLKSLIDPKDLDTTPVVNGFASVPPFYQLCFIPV
property-name: pKi
# pKi = -log10(concentration in molar units)

IN: // lookup pKi for N#Cc1ccc(C(O)c2ccc(C#N)cc2)cc1 [letrozole metabolite, 4,4′-methanol-bisbenzonitrile]
OUT: 4.71

---

target: UniProt P11509; assay: in vitro; settings: microsomes, pH 7.4
property-name: Ki at 15 min (µM)
Answer format: numeric, µM implied, no suffix.

IN: Ki at 15 min for N#Cc1ccc(C(c2ccc(C#N)cc2)n2cncn2)cc1 ?
OUT: 4.6

---

target: expressed CYP2C19 (Homo sapiens, UniProt P33261); assay: biochemical; details: Ki values, expressed CYP2C19, expressed 2C19 52 pmol/ml, S-mephenytoin 10–75 μM, mean ± SE, competitive model
Sequence (P33261 whole entry): as the sequence (P33261 whole entry) above
property-name: Ki (µM)
Please reply with the bare figure in µM and do not write the unit itself.

IN: Quick one: Ki for N#Cc1ccc(C(c2ccc(C#N)cc2)n2cncn2)cc1 ?
OUT: 33.3

---

target: UniProtKB P20813; experiment: Inhibition of expressed CYP2B6; type: biochemical; conditions: read-out: Ki values, expressed CYP2B6; expressed CYP2B6 52 pmol/ml, efavirenz 10–75 μM, mean ± SE, competitive model
property-name: Ki
A bare number is not enough; add the unit after it.

IN: What value of Ki on UniProtKB P20813 does N#Cc1ccc(C(O)c2ccc(C#N)cc2)cc1 [letrozole metabolite, 4,4′-methanol-bisbenzonitrile] have?
OUT: 40.4 µM

---

biological target: CYP2B6 (Homo sapiens, UniProt P20813); assay: Inhibition of CYP2B6; conditions: read-out: Ki values, CYP2B6, HLMs; HLMs (HL-091499) 0.5 mg/ml, efavirenz 10–75 μM, mean ± SE, competitive model
Sequence (P20813 whole entry): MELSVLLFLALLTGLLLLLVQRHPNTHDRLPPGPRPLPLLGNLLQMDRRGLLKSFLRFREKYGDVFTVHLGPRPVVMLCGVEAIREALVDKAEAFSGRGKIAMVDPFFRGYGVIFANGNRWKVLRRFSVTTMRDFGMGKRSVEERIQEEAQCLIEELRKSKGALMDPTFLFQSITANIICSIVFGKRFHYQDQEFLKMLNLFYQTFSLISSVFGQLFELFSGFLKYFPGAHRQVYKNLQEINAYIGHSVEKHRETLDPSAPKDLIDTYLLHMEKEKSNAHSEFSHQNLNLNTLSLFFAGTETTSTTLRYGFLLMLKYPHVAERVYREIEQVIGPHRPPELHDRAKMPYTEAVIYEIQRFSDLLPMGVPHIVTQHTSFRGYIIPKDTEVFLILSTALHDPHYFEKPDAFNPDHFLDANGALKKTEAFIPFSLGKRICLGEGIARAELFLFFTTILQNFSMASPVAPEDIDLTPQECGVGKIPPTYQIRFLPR
property-name: pKi
Worth noting: pKi values are minus log10 of concentrations stated in mol/L.

IN: // pKi lookup, key: N#Cc1ccc(C(O)c2ccc(C#N)cc2)cc1 [letrozole metabolite, 4,4′-methanol-bisbenzonitrile]
OUT: 4.89

---

test system: CYP2C8; assay: Inhibition of CYP2C8; assay type: biochemical; settings: human, human liver microsomes, pH 7.4, probe amodiaquine 5 μM (desethylation)
property-name: inhibition at 15 min, 100 μM

IN: Using the record for N#Cc1ccc(C(c2ccc(C#N)cc2)n2cncn2)cc1 [letrozole] , report its inhibition at 15 min, 100 μM.
OUT: < 20%

---

molecular target: expressed CYP2C19 (Homo sapiens, UniProt P33261)
property-name: IC50 (µM)
Quick reminder: number only, in µM, skip the unit.

IN: Which IC50 is reported for this compound? N#Cc1ccc(C(c2ccc(C#N)cc2)n2cncn2)cc1 [letrozole]
OUT: 62.9

---

tested on: CYP3A; experiment: Inhibition of CYP3A; type: biochemical; conditions: human, human liver microsomes, pH 7.4, probe midazolam 10 μM (1′-hydroxylation)
property-name: inhibition at 5 min, 100 μM

IN: Tell me the measured inhibition at 5 min, 100 μM of N#Cc1ccc(C(c2ccc(C#N)cc2)n2cncn2)cc1 , please.
OUT: < 20%

---

Target chain: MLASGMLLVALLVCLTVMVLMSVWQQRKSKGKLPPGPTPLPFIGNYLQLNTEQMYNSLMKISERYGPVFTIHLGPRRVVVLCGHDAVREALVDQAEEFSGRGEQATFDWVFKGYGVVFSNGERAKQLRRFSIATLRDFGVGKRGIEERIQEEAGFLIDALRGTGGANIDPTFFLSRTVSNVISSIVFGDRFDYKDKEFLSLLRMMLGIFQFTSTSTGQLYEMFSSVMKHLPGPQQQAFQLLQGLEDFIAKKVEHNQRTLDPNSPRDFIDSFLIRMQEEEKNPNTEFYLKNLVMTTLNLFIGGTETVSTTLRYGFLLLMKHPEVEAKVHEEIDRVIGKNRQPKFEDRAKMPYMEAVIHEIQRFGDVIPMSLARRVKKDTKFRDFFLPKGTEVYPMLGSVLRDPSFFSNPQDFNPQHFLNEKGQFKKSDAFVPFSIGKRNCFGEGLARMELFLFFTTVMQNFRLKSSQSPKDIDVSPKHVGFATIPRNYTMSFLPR
property-name: IC50 (µM)
# value in µM; strip the unit string

IN: So what does the record say about IC50 for N#Cc1ccc(C(c2ccc(C#N)cc2)n2cncn2)cc1 [letrozole] ?
OUT: 5.9

---

Molecular target: expressed CYP2A6 (Homo sapiens)
Sequence (P11509 1-494): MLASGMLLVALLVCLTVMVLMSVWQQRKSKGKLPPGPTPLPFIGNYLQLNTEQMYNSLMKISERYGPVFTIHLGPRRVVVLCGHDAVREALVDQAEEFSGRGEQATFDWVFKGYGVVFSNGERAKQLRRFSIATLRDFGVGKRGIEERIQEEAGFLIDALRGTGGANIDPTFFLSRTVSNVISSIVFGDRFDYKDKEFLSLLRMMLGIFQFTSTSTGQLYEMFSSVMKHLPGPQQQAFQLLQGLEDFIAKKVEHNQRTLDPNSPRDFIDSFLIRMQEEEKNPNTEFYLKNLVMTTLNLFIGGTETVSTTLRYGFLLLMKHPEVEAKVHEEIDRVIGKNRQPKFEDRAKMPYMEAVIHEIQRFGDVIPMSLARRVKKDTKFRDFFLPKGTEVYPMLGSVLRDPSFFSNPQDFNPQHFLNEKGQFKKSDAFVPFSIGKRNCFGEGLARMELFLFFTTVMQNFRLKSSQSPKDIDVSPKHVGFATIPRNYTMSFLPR
property-name: IC50 (µM)
Hi! Could you send only the number? It should be in µM, unit omitted.

IN: Any idea what its IC50 is? The compound is N#Cc1ccc(C(c2ccc(C#N)cc2)n2cncn2)cc1 [letrozole]
OUT: 12.5

---

molecular target: expressed CYP2C19 (Homo sapiens); settings: read-out: Ki values, expressed CYP2C19; expressed 2C19 52 pmol/ml, S-mephenytoin 10–75 μM, mean ± SE, competitive model
property-name: pKi
Just the number, please; pKi means minus log10 of the concentration in mol/L.

IN: Dear colleague, I am looking for the recorded pKi of the following molecule: N#Cc1ccc(C(O)c2ccc(C#N)cc2)cc1 [letrozole metabolite, 4,4′-methanol-bisbenzonitrile]
OUT: 5.35

---

target: CYP2B6 (Homo sapiens, UniProt P20813); assay: in vitro; conditions: microsomes, pH 7.4
property-name: inhibition at 10 min, 100 μM

IN: Query: inhibition at 10 min, 100 μM; subject: N#Cc1ccc(C(c2ccc(C#N)cc2)n2cncn2)cc1
OUT: < 20%

---

target: CYP2D6 (Homo sapiens); experiment: in vitro; conditions: microsomes, pH 7.4
Sequence (P10635 whole entry): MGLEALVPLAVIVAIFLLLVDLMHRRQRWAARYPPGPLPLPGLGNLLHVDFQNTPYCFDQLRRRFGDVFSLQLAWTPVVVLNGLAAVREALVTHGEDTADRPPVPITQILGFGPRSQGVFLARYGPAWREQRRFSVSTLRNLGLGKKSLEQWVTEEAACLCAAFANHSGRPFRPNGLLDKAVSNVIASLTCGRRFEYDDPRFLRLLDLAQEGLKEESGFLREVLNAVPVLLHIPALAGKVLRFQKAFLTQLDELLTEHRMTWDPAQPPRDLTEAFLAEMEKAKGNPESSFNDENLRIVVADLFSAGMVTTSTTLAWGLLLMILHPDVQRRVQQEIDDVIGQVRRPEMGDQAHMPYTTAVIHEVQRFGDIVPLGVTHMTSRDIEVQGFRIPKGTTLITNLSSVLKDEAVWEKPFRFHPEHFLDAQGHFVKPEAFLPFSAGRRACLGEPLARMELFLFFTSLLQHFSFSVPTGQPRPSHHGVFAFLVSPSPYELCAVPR
property-name: inhibition at 30 min, 100 μM

IN: Requested read-out: inhibition at 30 min, 100 μM. Entry: N#Cc1ccc(C(c2ccc(C#N)cc2)n2cncn2)cc1 [letrozole]
OUT: < 20%
